// values below are reported IC50
Target: HSF-PLA2 (Homo sapiens, UniProt P14555)
Construct: extracellular enzyme obtained from human synovial fluid (HSF-PLA2)
Assay: Assay for Inhibition of HSF-PLA2 In Vitro
Conditions: read-out: Inhib of HSF-PLA2 IC50
Report only the number, with the unit nM understood.

For orientation, consider the following solved cases.
[[record]]
compound = "CCCCCCCCCCCCCCCCCCOc1cc(OCCCP(=O)(OCC)OCC)cc(N(CC(=O)O)CC(=O)O)c1"
assay_result = 400

[[record]]
compound = "CCCCCCCCCCCCCCCCCCCc1cccc(N(CC(=O)O)CC(=O)O)c1 [Example 36f]"
assay_result = 200

[[record]]
compound = "COC(=O)CCCCCCCCCCOc1cc(OCCCCCCCCCCC(=O)OC)cc(N(CC(=O)O)CC(=O)O)c1"
assay_result = 300

[[record]]
compound = "CCCCCCCCCCCCCCCCCCOc1cc(OC(=O)C(c2ccccc2)c2ccccc2)cc(N(CC(=O)O)CC(=O)O)c1 [Example 58g]"
assay_result = 100


Please find the next compound below.
Q. Find the measured IC50 of CCCCCCCCc1ccc(N(CC(=O)O)CC(=O)O)cc1 [Example 39c] and report it.
A. 1700

* * *

Biological target: HSF-PLA2 (Homo sapiens, UniProt P14555)
Construct: extracellular enzyme obtained from human synovial fluid (HSF-PLA2)
Assay: Assay for Inhibition of HSF-PLA2 In Vitro
Settings: read-out: Inhib of HSF-PLA2 IC50
// values below are reported pIC50
pIC50 here: minus log base 10 of the concentration, concentration in moles per litre.

Q. Find the measured pIC50 of "CCCCCCCCCCCCCCCCCCOc1cc(OCCCCCCCCCCCCCCCCCC)cc(N(CC(=O)O)CC(=O)O)c1" and report it.
A. 6.30

* * *

Target: HSF-PLA2 (Homo sapiens, UniProt P14555)
Construct: extracellular enzyme obtained from human synovial fluid (HSF-PLA2)
Sequence (P14555 21-144): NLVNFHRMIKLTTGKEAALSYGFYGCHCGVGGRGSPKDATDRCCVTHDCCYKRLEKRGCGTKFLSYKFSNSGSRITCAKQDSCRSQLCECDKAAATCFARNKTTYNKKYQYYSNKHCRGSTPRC
Test: Assay for Inhibition of HSF-PLA2 In Vitro
Conditions: read-out: Inhib of HSF-PLA2 IC50
// values below are reported IC50
Report only the number, with the unit µM understood.

[[record]]
molecule = "CCCCCCCCCCCCCCCCCCOc1cc(OCC(=O)O)cc(N(CC(=O)O)CC(=O)O)c1 [Example 58c]"
assay_result = 2.8

[[record]]
molecule = "CCCCCCCCCCOc1ccc(N(CC(=O)O)CC(=O)O)cc1OCCCCCCCCCC [Example 119a]"
assay_result = 0.16

[[record]]
molecule = "CCCCCCCCCCNC(=O)c1cc(NCC(=O)O)cc(C(=O)NCCCCCCCCCC)c1 [Example 12]"
assay_result = 5.2


Q. Find the measured IC50 of CCCCCCCCCCCCCCCCCCOc1cc(OCCCOc2ccc(C(=O)O)cc2)cc(N(CC(=O)O)CC(=O)O)c1 [Example 58p] and report it.
A. 0.6

Q. Find the measured IC50 of CCCCCCCCC(O)COc1cc(OCC(O)CCCCCCCC)cc(N(CC(=O)O)CC(=O)O)c1 (racemic) [Example 6h] and report it.
A. 0.5
